Recorded values, source PubChem BioAssay (NCI).

Tested on: DU-145 prostate
Assay: NCI tumour cell line growth inhibition, 48 h
Reported TGI is given for each of the following compounds.
Give the value, in units of µM, as a plain number.

C/C(=C/CO[Si](C)(C)C(C)(C)C)C(=O)N(C)c1ccccc1I: 36.7
CCN(CC)CCO/N=C1\CC[C@H]2[C@@H]3CC=C4C[C@@H](O)CC[C@]4(C)[C@H]3CC[C@]12C: 65.7
CCN1CCN(c2nc(NNC(=O)Cc3ccccc3)nc(N3CCN(C(c4ccccc4)c4ccccc4)CC3)n2)CC1: 7.2

Here is the next item to consider.
Task item: Which TGI is reported for this compound? `Cc1c2c3cc(O)ccc3nc-2n(C)c2ccccc12`
Reply: 14.3
